- Test system: Histone deacetylase
- Procedure summary: Inhibitory activity against histone deacetylase (HDAC) enzyme derived from partially purified extracts of human HeLa cells using [3H]11 as radioligand
Task for the reader: assign each of the following molecules its reported IC50.

Name the reported IC50 value associated with the molecule CCC(=O)CCCCC[C@@H]1NC(=O)[C@H]2CCCCN2C(=O)[C@H]([C@@H](C)CC)NC(=O)[C@H](c2cnc3ccccc3c2Cl)NC1=O
67 nM

Give its IC50 value. Item: CCCn1cc(C(=O)[C@H]2NC(=O)[C@H](CCCCCC(=O)CC)NC(=O)[C@H]3CCCCN3C(=O)[C@H]([C@@H](C)CC)NC2=O)c2ccccc21
15 nM

Consider the molecule CCC(=O)CCCCC[C@@H]1NC(=O)[C@H]2CCCCN2C(=O)[C@H]([C@@H](C)CC)NC(=O)[C@H](Cc2cn(CN3CCCC3)c3ccccc23)NC1=O and give its measured IC50.
0.2 nM

Data origin: ChEMBL document CHEMBL1133988
